Assayed System: Phosphorylase b kinase gamma catalytic chain, liver/testis isoform (Homo sapiens, UniProt P15735); note: in the data inactive means no Kd found up to 30 µM
Sequence (P15735 whole entry, canonical isoform): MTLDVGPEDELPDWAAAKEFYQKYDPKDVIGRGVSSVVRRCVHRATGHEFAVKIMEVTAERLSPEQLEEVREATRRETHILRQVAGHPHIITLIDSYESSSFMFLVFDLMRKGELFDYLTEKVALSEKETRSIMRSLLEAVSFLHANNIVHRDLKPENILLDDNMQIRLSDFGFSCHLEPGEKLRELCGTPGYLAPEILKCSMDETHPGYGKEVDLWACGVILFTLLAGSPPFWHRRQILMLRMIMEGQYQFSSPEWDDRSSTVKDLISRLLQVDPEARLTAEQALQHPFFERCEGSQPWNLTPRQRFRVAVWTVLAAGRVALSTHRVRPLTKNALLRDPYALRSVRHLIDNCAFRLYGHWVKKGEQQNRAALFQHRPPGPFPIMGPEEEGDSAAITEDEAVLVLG
Activity calls are given as the source filed them.
Use one of these outcomes when replying: active, inactive

Field: example entries. Status: answers known.
| Molecule | Category Label |
| --- | --- |
| CCN1CCN(Cc2ccc(-c3cc4c(N[C@H](C)c5ccccc5)ncnc4[nH]3)cc2)CC1 | inactive |
| Cc1ccc(-n2nc(C(C)(C)C)cc2NC(=O)NCc2cc(F)ccc2Oc2ccc3c(cnn3CCO)c2)cc1 | inactive |
| Cc1ccc(NC(=O)c2ccc(CN3CC[C@H](N(C)C)C3)c(C(F)(F)F)c2)cc1Nc1nccc(-c2cncnc2)n1 | inactive |

Kindly provide the recorded test outcome for the following molecule: COCCNCc1ccc(-c2cc3nccc(Oc4ccc(NC(=S)NC(=O)Cc5ccc(F)cc5)cc4F)c3s2)nc1
inactive

Which result was noted for this molecule in the test: C1=C/COCc2cc(ccc2OCCN2CCCC2)Nc2nccc(n2)-c2cccc(c2)COC/1
inactive

Taken from ChEMBL document CHEMBL3991601.
